Measured values drawn from ChEMBL document CHEMBL1124260 for this set.

Tested on: Mus musculus
experiment_summary: Antitumor activity against ip implanted L1210 leukemia in mouse after ip administration of 30 mg/kg for 5 days expressed as increase in mean life span
Assay type: functional
condition_label: Mus musculus, L1210, ip, 120 h, route intraperitoneal
measurement_kind: ILS at 30 mg/kg

>>> measured_result("CC(=O)[O-].Cc1c2cc[n+]([C@@H]3O[C@H](CO)[C@@H](O)[C@@H]3O)cc2c(C)c2c1[nH]c1ccc(O)cc12")
"> 262%"
>>> measured_result("COc1ccc2[nH]c3c(C)c4cc[n+](C5O[C@@H](C)[C@H](O)[C@@H](O)[C@H]5O)cc4c(C)c3c2c1.[Br-] (some centres not stated)")
"56%"
>>> measured_result("CC(=O)N[C@@H]1[C@@H](O)[C@H](O)[C@@H](CO)O[C@H]1[n+]1ccc2c(C)c3[nH]c4ccc(O)cc4c3c(C)c2c1.[Cl-]")
"39%"
>>> measured_result("COc1ccc2[nH]c3c(C)c4cc[n+](C5OCC(O)C(O)C5O)cc4c(C)c3c2c1.[Br-] (configuration not stated)")
"56%"
>>> measured_result("Cc1c2cc[n+]([C@@H]3O[C@H](CO)[C@H](O)[C@@H]3O)cc2c(C)c2c1[nH]c1ccc(O)cc12.[Cl-] (stereo in doubt; 43a)")
"> 967%"
>>> measured_result("COc1ccc2[nH]c3c(C)c4cc[n+]([C@@H]5O[C@H](C)[C@H](O)[C@H](O)[C@H]5O)cc4c(C)c3c2c1.[Br-]")
"20%"

Turning to the following compound.
I would be grateful if you could share the reported ILS at 30 mg/kg for Cc1c2cc[n+]([C@@H]3OC[C@@H](O)[C@H](O)[C@@H]3O)cc2c(C)c2c1[nH]c1ccc(O)cc12.[Cl-] .
> 786%

* * *

Tested on: Mus musculus
experiment_summary: Number of survivors out of 6 ip implanted L1210 leukemia mouse, tested after 80 days at 30 mg/kg
Format: functional
condition_label: route intraperitoneal
Please respond with reported Cures for every item in the list.
Numbers only.

>>> measured_result("Cc1c2cc[n+]([C@@H]3O[C@H](CO)[C@H](O)[C@@H]3O)cc2c(C)c2c1[nH]c1ccc(O)cc12.[Cl-] (stereo in doubt; 43a)")
6
>>> measured_result("Cc1c2cc[n+]([C@@H]3O[C@H](C)[C@H](O)[C@H](O)[C@H]3O)cc2c(C)c2c1[nH]c1ccc(O)cc12.[Br-]")
0
>>> measured_result("CC(=O)N[C@@H]1[C@@H](O)[C@@H](O)[C@@H](CO)O[C@H]1[n+]1ccc2c(C)c3[nH]c4ccc(O)cc4c3c(C)c2c1.[Cl-]")
0
>>> measured_result("Cc1c2cc[n+](C3O[C@H](CO)[C@@H](O)[C@H]3O)cc2c(C)c2c1[nH]c1ccc(O)cc12.[Br-] (some centres not stated)")
2
>>> measured_result("Cc1c2cc[n+]([C@@H]3O[C@H](C)[C@@H](O)[C@H]3O)cc2c(C)c2c1[nH]c1ccc(O)cc12.[Cl-]")
1
>>> measured_result("COc1ccc2[nH]c3c(C)c4cc[n+](C5OCC(O)C(O)C5O)cc4c(C)c3c2c1.[Br-] (configuration not stated)")
0
>>> measured_result("CC(=O)[O-].Cc1c2cc[n+]([C@H]3O[C@@H](CO)[C@H](O)[C@H]3O)cc2c(C)c2c1[nH]c1ccc(O)cc12")
1
>>> measured_result("COc1ccc2[nH]c3c(C)c4cc[n+]([C@@H]5O[C@H](C)[C@H](O)[C@H](O)[C@H]5O)cc4c(C)c3c2c1.[Br-]")
0

For each of the compounds below, note its Cures.
1. CC(=O)[O-].Cc1c2cc[n+]([C@@H]3O[C@H](CO)[C@@H](O)[C@@H]3O)cc2c(C)c2c1[nH]c1ccc(O)cc12
2. CC(=O)N[C@@H]1[C@@H](O)[C@H](O)[C@@H](CO)O[C@H]1[n+]1ccc2c(C)c3[nH]c4ccc(O)cc4c3c(C)c2c1.[Cl-]
3. Cc1c2cc[n+]([C@@H]3O[C@H](CO)[C@H](O)[C@H]3O)cc2c(C)c2c1[nH]c1ccc(O)cc12.[Cl-]
4. CC(=O)[O-].Cc1c2cc[n+](C3OC(C)C(O)C(O)C3O)cc2c(C)c2c1[nH]c1ccc(O)cc12 (configuration not stated)

1
0
4
3

* * *

Tested on: Mus musculus
experiment_summary: Antitumor activity against ip implanted P388 leukemia in mouse after ip administration of 1.25 mg/kg for 5 days expressed as increase in mean life span
Format: functional
condition_label: 120 h, route intraperitoneal
measurement_kind: ILS at 1.25 mg/kg (%)
Numbers only, in %.

As a guide, the following entries are already answered.
>>> measured_result("Cc1c2cc[n+]([C@@H]3OC[C@@H](O)[C@H](O)[C@@H]3O)cc2c(C)c2c1[nH]c1ccc(O)cc12.[Cl-]")
87
>>> measured_result("Cc1c2cc[n+]([C@@H]3O[C@H](CO)[C@H](O)[C@H]3O)cc2c(C)c2c1[nH]c1ccc(O)cc12.[Cl-]")
110
>>> measured_result("Cc1c2cc[n+]([C@H]3O[C@@H](C)[C@@H](O)[C@@H](O)[C@@H]3O)cc2c(C)c2c1[nH]c1ccc(O)cc12.[Br-] (stereo in doubt; 56)")
85

Then there is this compound:
# lookup: ILS at 1.25 mg/kg of Cc1c2cc[n+]([C@@H]3O[C@H](CO)[C@H](O)[C@@H]3O)cc2c(C)c2c1[nH]c1ccc(O)cc12.[Cl-] (stereo in doubt; 43a)
68

* * *

Tested on: Mus musculus
experiment_summary: Effect on ip implanted syngeneic B16 melanoma by ip administration for 9 days at 10 mg/kg was measured as increase in mean life span
condition_label: 216 h
measurement_kind: ILS at 10 mg/kg (%)
Numbers only, in %.

>>> measured_result("Cc1c2cc[n+]([C@H]3O[C@@H](C)[C@@H](O)[C@@H](O)[C@@H]3O)cc2c(C)c2c1[nH]c1ccc(O)cc12.[Br-] (stereo in doubt; 56)")
62

Quick one: give me ILS at 10 mg/kg for each item below, same order please.
1. Cc1c2cc[n+]([C@@H]3O[C@H](CO)[C@H](O)[C@H]3O)cc2c(C)c2c1[nH]c1ccc(O)cc12.[Cl-]
2. Cc1c2cc[n+]([C@@H]3O[C@H](CO)[C@H](O)[C@@H]3O)cc2c(C)c2c1[nH]c1ccc(O)cc12.[Cl-] (stereo in doubt; 43a)
3. Cc1c2cc[n+]([C@@H]3OC[C@@H](O)[C@H](O)[C@@H]3O)cc2c(C)c2c1[nH]c1ccc(O)cc12.[Cl-]
4. Cc1c2cc[n+]([C@@H]3OC[C@H](O)[C@H](O)[C@H]3O)cc2c(C)c2c1[nH]c1ccc(O)cc12.[Br-]

1: 64; 2: 44; 3: 61; 4: 46

* * *

Tested on: Mus musculus
experiment_summary: Antitumor activity against ip implanted L1210 leukemia in mouse after ip administration of 30 mg/kg for 5 days expressed as increase in mean life span
Type: functional
condition_label: Mus musculus, L1210, ip, 120 h, route intraperitoneal
measurement_kind: ILS at 30 mg/kg

Example results:
>>> measured_result("CC(=O)[O-].Cc1c2cc[n+](C3OC(C)C(O)C(O)C3O)cc2c(C)c2c1[nH]c1ccc(O)cc12 (configuration not stated)")
"> 615%"
>>> measured_result("Cc1c2cc[n+]([C@@H]3O[C@H](C)[C@H](O)[C@H](O)[C@H]3O)cc2c(C)c2c1[nH]c1ccccc12.[Br-]")
"20%"
>>> measured_result("Cc1c2cc[n+]([C@@H]3OC[C@H](O)[C@H](O)[C@H]3O)cc2c(C)c2c1[nH]c1ccc(O)cc12.[Br-]")
"> 860%"

# return ILS at 30 mg/kg for each item in the list
1. Cc1c2cc[n+](C3O[C@H](CO)[C@@H](O)[C@H]3O)cc2c(C)c2c1[nH]c1ccc(O)cc12.[Br-] (some centres not stated)
2. Cc1c2cc[n+]([C@@H]3O[C@H](C)[C@@H](O)[C@H]3O)cc2c(C)c2c1[nH]c1ccc(O)cc12.[Cl-]

1. > 387%
2. > 230%

Hi! Can you tell me ILS at 30 mg/kg for each of these compounds?
1. Cc1c2cc[n+]([C@@H]3O[C@H](C)[C@H](O)[C@H](O)[C@H]3O)cc2c(C)c2c1[nH]c1ccc(O)cc12.[Br-]
2. Br.CC(=O)[O-].Cc1c2cc[n+](C3O[C@H](C)[C@@H](O)[C@@H]3O)cc2c(C)c2c1[nH]c1ccc(O)cc12 (some centres not stated)

1: 124%; 2: > 217%
